The reported measurements were obtained from the supplement of paper PMC11908140.

// 8OG:A repair function score lookup, one value per entry
B1: library; numbered along this chain (parent)
chain: MRKPRAAVGSGHRKQAASQEGRQKHAKNNSQAKPSACDGLARQPEEVVLQASVSSYHLFRDVAEVTAFRGSLLSWYDQEKRDLPWRRRAEDEMDLDRRAYAVWVSEVMLQQTQVATVINYYTGWMQKWPTLQDLASASLEEVNQLWAGLGYYSRGRRLQEGARKVVEELGGHMPRTAETLQQLLPGVGRYTAGAIASIAFGQATGVVDGNVARVLCRVRAIGADPSSTLVSQQLWGLAQQLVDPARPGDFNQAAMELGATVCTPQRPLCSQCPVESLCRARQRVEQEQLLASGSLSGSPDVEECAPNTGQCHLCLPPSEPWDQTLGVVNFPRKASRKPPREESSATCVLEQPGALGAQILLVQRPNSGLLAGLWEFPSVTWEPSEQLQRKALLQELQRWAGPLPATHLRHLGEVVHTFSHIKLTYQVYGLALEGQTPVTTVPPGARWLTQEEFHTAAVSTAMKKVFRVYQGQQPGTCMGSKRSQVSSPCSRKKPRMGQQVLDNFFRSHISTDAHSLNSAAQ

variants of: B1; assay: 8OG:A repair function score (normalized; synonymous = 0, nonsense = -1) (normalized log-likelihood score); higher = more repair activity (WT-like); conditions: with 8OG:A DNA repair reporter (GFP) in HEK-293 MUTYH KO cells;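 also: cells sorted at 72 h after reporter transfection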
MEASURED PARAMETER: 8OG:A repair function score

MUTATION STRING	MEASURED PARAMETER	ASSAY RESULT
A400T	8OG:A repair function score	-0.0197
V165A	8OG:A repair function score	-0.341
A456I	8OG:A repair function score	-0.12
